Where these numbers come from: the Immune Epitope Database (IEDB)

Biological target: HLA-B*15:01
Assay: IEDB peptide-MHC binding, purified MHC/direct/fluorescence; filed as Kd, often an IC50 or EC50 that approximates it; bounds were set here for any values at or beyond the usual limits of such assays
Conditions: source organism: Homo sapiens
ENDPOINT NAME: Kd (µM)
A number alone suffices; assume µM.

### Prompt So what's the measured Kd for this one? `RVMAPRALL`
### Response 0.103

---

Target: HLA-A*68:02
Assay: IEDB peptide-MHC binding, purified MHC/direct/fluorescence; filed as Kd, often an IC50 or EC50 that approximates it; bounds were set here for any values at or beyond the usual limits of such assays
Details: source organism: Squirrelpox virus
ENDPOINT NAME: Kd

### Prompt Suppose we examine the sequence `MACHRVLTY` ; what Kd value has been reported?
### Response ≥ 20 µM

---

Target: HLA-A*03:01
Assay: IEDB peptide-MHC binding, purified MHC/competitive/radioactivity; filed as Kd, often an IC50 or EC50 that approximates it; bounds were set here for any values at or beyond the usual limits of such assays
Settings: source organism: SARS coronavirus Tor2
Recorded Kd for the following sequences
Could you give me the number in nM? Just the number is fine.

LQGPPGTGK; 459

### Prompt Test system HLA-A*03:01; read-out Kd; what value for `YLALYNKYK` ?
### Response 201

### Prompt How about `YSYATHHDK` ?
### Response 16.4

### Prompt Also `GVRFFFYTSK` ?
### Response 88.9

### Prompt Same question, `STGNYNYKYR` this time
### Response 2760

### Prompt Same for `FLIGANYLGK`
### Response 213

### Prompt Same again, this time with `STAWLCALGK`
### Response 21.6

### Prompt Same again, this time with `QLLMPLKAPK`
### Response 100

### Prompt Can you check `LLLFADINGK` next?
### Response 136

### Prompt Next: `QTMLFTMLR`
### Response 43.5

### Prompt Then what about the sequence `RTELGVEFLK` ?
### Response 962

---

Target: HLA-B*15:01
Test: IEDB peptide-MHC binding, purified MHC/direct/fluorescence; filed as Kd, often an IC50 or EC50 that approximates it; bounds were set here for any values at or beyond the usual limits of such assays
Details: source organism: Brucella abortus
ENDPOINT NAME: Kd

### Prompt Field: Kd (HLA-B*15:01). Entry: `GRDHVRVTL`
### Response ≥ 20 µM

---

Molecular target: HLA-A*01:01
Assay: IEDB peptide-MHC binding, purified MHC/competitive/fluorescence; filed as Kd, often an IC50 or EC50 that approximates it; bounds were set here for any values at or beyond the usual limits of such assays
Conditions: source organism: Vaccinia virus Tian Tan
ENDPOINT NAME: pKd
# reply with the number alone; pKd is -log10 of concentration in mol/L

### Prompt HLA-A*01:01 / pKd / `YYKDDISYF` : value?
### Response 5.86

---

Target: HLA-B*45:01
Assay: IEDB peptide-MHC binding, purified MHC/competitive/radioactivity; filed as Kd, often an IC50 or EC50 that approximates it; bounds were set here for any values at or beyond the usual limits of such assays
Conditions: source organism: Lymphocytic choriomeningitis virus (strain Armstrong)
ENDPOINT NAME: pKd
# pKd is unitless: minus log10 of the molar concentration; print number only

### Prompt Please state recorded pKd (tested on HLA-B*45:01) of `TEAILQLGDL`
### Response 4.88
